Field: IC50. Provide a value for each of the molecules that follow.
# experimental-system: Nitric oxide synthase 3 (Homo sapiens)
# Sequence (P29474 whole entry): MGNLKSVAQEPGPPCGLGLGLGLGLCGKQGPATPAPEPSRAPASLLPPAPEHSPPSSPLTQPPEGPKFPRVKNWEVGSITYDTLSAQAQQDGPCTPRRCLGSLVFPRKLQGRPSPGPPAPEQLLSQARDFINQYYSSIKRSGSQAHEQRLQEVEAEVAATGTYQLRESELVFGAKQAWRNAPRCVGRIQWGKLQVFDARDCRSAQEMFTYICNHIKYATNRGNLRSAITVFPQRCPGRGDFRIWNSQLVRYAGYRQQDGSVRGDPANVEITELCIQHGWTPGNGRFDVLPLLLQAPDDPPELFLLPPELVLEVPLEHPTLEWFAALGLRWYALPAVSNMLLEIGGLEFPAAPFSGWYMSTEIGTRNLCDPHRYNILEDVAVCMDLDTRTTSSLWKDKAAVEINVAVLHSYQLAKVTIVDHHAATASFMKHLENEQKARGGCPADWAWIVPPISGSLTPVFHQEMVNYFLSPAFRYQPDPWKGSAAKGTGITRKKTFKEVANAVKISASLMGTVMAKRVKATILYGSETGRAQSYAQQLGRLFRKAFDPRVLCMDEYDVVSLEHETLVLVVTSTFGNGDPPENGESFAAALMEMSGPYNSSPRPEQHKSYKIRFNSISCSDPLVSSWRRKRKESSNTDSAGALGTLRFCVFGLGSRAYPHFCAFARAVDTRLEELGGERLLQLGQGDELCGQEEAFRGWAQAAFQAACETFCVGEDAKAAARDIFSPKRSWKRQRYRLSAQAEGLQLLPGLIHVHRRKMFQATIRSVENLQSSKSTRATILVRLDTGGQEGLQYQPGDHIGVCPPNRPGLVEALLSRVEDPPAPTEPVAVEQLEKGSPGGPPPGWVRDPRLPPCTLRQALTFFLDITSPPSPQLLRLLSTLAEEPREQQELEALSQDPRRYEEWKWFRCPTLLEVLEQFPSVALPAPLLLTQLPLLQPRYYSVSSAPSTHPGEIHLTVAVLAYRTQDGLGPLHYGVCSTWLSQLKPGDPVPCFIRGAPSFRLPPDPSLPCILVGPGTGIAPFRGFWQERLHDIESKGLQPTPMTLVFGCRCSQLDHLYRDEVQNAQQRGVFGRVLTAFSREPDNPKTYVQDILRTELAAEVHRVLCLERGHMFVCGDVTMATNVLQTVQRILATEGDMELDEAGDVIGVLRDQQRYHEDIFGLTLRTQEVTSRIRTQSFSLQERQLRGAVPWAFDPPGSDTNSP
Give bare numbers, in nM.

{"molecule": "C[C@@H]1CC(N)=N[C@H]2CCCC[C@@H]12", "IC50 (nM)": 2000}

Count: 4. Required value per item: IC50.
1. C[C@@H]1CC(N)=N[C@@H]2CCC[C@H]12 (stereo in doubt; 10)
2. C[C@@H]1CC(N)=N[C@@H]2CCCCC[C@H]12
3. C[C@H]1CC(N)=N[C@H]2CCC[C@H]21
4. C[C@@H]1CC(N)=N[C@@H]2CCCC[C@H]12

Solution:
1. 470
2. 4500
3. 870
4. 830

Problem: // Input: C[C@@H]1CC(N)=N[C@@H]2CCC[C@H]12 (stereo in doubt; 10a) . Output its IC50 only.
Solution: 360

Value source: ChEMBL document CHEMBL1143520
